test: Antiallergic activity in passively sensitized rhesus monkey lungs assessed as inhibition of antigen-induced histamine release at 1 x 10^-4 M by fluorometric analysis relative to control
Format: functional, Macaca mulatta, Lung
# inhibition (INH) per record follows

{"compound": "CC(=O)C1=C(O)/C(=C(\\C)Nc2cc(NC(=O)C(O)CO)cc(NC(=O)C(O)CO)c2)C(=O)OC1=O (stereo not given)", "inhibition (INH)": "7%"}
{"compound": "CC(=O)Nc1cc(O)cc(N/C(C)=C2\\C(=O)OC(=O)C(C(C)=O)=C2O)c1", "inhibition (INH)": "57%"}
{"compound": "CC(=O)C1=C(O)/C(=C(\\C)Nc2ccc(O)c(N)c2)C(=O)OC1=O.Cl", "inhibition (INH)": "66%"}
{"compound": "CC(=O)C1=C(O)/C(=C(\\C)Nc2cc(N)cc(O)c2)C(=O)OC1=O.Cl", "inhibition (INH)": "24%"}
{"compound": "CC(=O)Nc1cc(N)cc(N/C(C)=C2\\C(=O)OC(=O)C(C(C)=O)=C2O)c1", "inhibition (INH)": "17%"}

* * *

# inhibition (INH) per record follows
test: Antiallergic activity in passively sensitized rhesus monkey lungs assessed as inhibition of antigen-induced slow reacting substance of anaphylaxis release at 1 x 10^-4 M relative to control
Format: functional, Macaca mulatta, Lung
readout-label: inhibition (INH) (%)

{"molecule": "CC(=O)Nc1cc(N)cc(N/C(C)=C2\\C(=O)OC(=O)C(C(C)=O)=C2O)c1", "readout-label": "inhibition (INH)", "value": 8}
{"molecule": "CC(=O)Nc1cc(O)cc(N/C(C)=C2\\C(=O)OC(=O)C(C(C)=O)=C2O)c1", "readout-label": "inhibition (INH)", "value": 22}
{"molecule": "CC(=O)C1=C(O)/C(=C(\\C)Nc2cc(N)cc(O)c2)C(=O)OC1=O.Cl", "readout-label": "inhibition (INH)", "value": 18}
{"molecule": "CC(=O)C1=C(O)/C(=C(\\C)Nc2cc(NC(=O)C(O)CO)cc(NC(=O)C(O)CO)c2)C(=O)OC1=O (stereo not given)", "readout-label": "inhibition (INH)", "value": 7}
{"molecule": "CC(=O)C1=C(O)/C(=C(\\C)Nc2ccc(O)c(N)c2)C(=O)OC1=O.Cl", "readout-label": "inhibition (INH)", "value": 56}

* * *

Test system: Rattus norvegicus
test: Antiallergic activity in po dosed rat assessed as inhibition of egg albumin-induced passive cutaneous anaphylaxis treated for 15 mins followed by egg albumin-challenge measured after 30 mins
Format: functional
condition-description: read-out: ID50 (the source's name)
# if measured ED50 < 3 mg/kg: t  # else: f

{"compound": "CC(=O)C1=C(O)/C(=C(\\C)Nc2cc(NC(=O)C(O)CO)cc(NC(=O)C(O)CO)c2)C(=O)OC1=O (stereo not given)", "assayed-target": "Rattus norvegicus", "cat": "t"}
{"compound": "CC(=O)C1=C(O)/C(=C(\\C)Nc2ccc(O)c(N)c2)C(=O)OC1=O.Cl", "assayed-target": "Rattus norvegicus", "cat": "t"}
{"compound": "CC(=O)C1=C(O)/C(=C(\\C)Nc2ccc(O)c(NC(=O)C(C)C)c2)C(=O)OC1=O", "assayed-target": "Rattus norvegicus", "cat": "f"}
{"compound": "CC(=O)C1=C(O)/C(=C(\\C)Nc2cc(NC(=O)C(=O)O)cc(NC(=O)C(=O)O)c2)C(=O)OC1=O", "assayed-target": "Rattus norvegicus", "cat": "f"}
{"compound": "CCOC(=O)C(=O)Nc1cc(NC(=O)C(=O)OCC)cc(N/C(C)=C2\\C(=O)OC(=O)C(C(C)=O)=C2O)c1", "assayed-target": "Rattus norvegicus", "cat": "f"}

* * *

System: Rattus norvegicus
test: Antiallergic activity in rat assessed as inhibition of egg albumin-induced passive cutaneous anaphylaxis at 0.5 mg/kg, iv treated for 30 secs followed by egg albumin-challenge measured after 30 mins relative to control
Type: functional
condition-description: 0.5 h
# inhibition in vivo at 0.5 mg/kg per record follows

{"input-smiles": "CC(=O)C1=C(O)/C(=C(\\C)Nc2ccc3oc(C)nc3c2)C(=O)OC1=O", "inhibition in vivo at 0.5 mg/kg (%)": 13}
{"input-smiles": "CC(=O)C1=C(O)/C(=C(\\C)Nc2ccc(OC(N)=O)cc2)C(=O)OC1=O", "inhibition in vivo at 0.5 mg/kg (%)": 19}
{"input-smiles": "CC(=O)C1=C(O)/C(=C(\\C)Nc2cccc(C(N)=O)c2)C(=O)OC1=O", "inhibition in vivo at 0.5 mg/kg (%)": -16}
{"input-smiles": "CC(=O)NCc1cccc(N/C(C)=C2\\C(=O)OC(=O)C(C(C)=O)=C2O)c1", "inhibition in vivo at 0.5 mg/kg (%)": 4}
{"input-smiles": "CC(=O)C1=C(O)/C(=C(\\C)Nc2ccccc2NC=O)C(=O)OC1=O", "inhibition in vivo at 0.5 mg/kg (%)": 52}
{"input-smiles": "CC(=O)C1=C(O)/C(=C(\\C)Nc2cccc(C(=O)N(C)C)c2)C(=O)OC1=O", "inhibition in vivo at 0.5 mg/kg (%)": 10}
{"input-smiles": "CCNC(=O)c1cccc(N/C(C)=C2\\C(=O)OC(=O)C(C(C)=O)=C2O)c1", "inhibition in vivo at 0.5 mg/kg (%)": -4}
{"input-smiles": "CC(=O)C1=C(O)/C(=C(\\C)Nc2ccc(OC(=O)NC3C=CC=CC=C3)cc2)C(=O)OC1=O", "inhibition in vivo at 0.5 mg/kg (%)": 22}
{"input-smiles": "CCCC(=O)Nc1cccc(N/C(C)=C2\\C(=O)OC(=O)C(C(C)=O)=C2O)c1", "inhibition in vivo at 0.5 mg/kg (%)": 58}
{"input-smiles": "CC(=O)C1=C(O)/C(=C(\\C)Nc2cccc(OCC(=O)O)c2)C(=O)OC1=O", "inhibition in vivo at 0.5 mg/kg (%)": 6}
{"input-smiles": "CCCCCCC(=O)Oc1ccc(N/C(C)=C2\\C(=O)OC(=O)C(C(C)=O)=C2O)cc1", "inhibition in vivo at 0.5 mg/kg (%)": 21}
{"input-smiles": "CC(=O)C1=C(O)/C(=C(\\C)Nc2cc(C(F)(F)F)cc(C(F)(F)F)c2)C(=O)OC1=O", "inhibition in vivo at 0.5 mg/kg (%)": 14}
{"input-smiles": "CC(=O)C1=C(O)/C(=C(\\C)Nc2cccc(C(=O)NC3C(=O)NC(=O)NC3=O)c2)C(=O)OC1=O", "inhibition in vivo at 0.5 mg/kg (%)": 39}
{"input-smiles": "CC(=O)C1=C(O)/C(=C(\\C)Nc2cccc(NS(C)(=O)=O)c2)C(=O)OC1=O", "inhibition in vivo at 0.5 mg/kg (%)": 28}
{"input-smiles": "CC(=O)C1=C(O)/C(=C(\\C)Nc2cccc(NS(N)(=O)=O)c2)C(=O)OC1=O", "inhibition in vivo at 0.5 mg/kg (%)": 45}
{"input-smiles": "CC(=O)C1=C(O)/C(=C(\\C)Nc2cccc(NC(=N)NS(=O)(=O)c3ccc(C)cc3)c2)C(=O)OC1=O", "inhibition in vivo at 0.5 mg/kg (%)": 2}
{"input-smiles": "CC(=O)C1=C(O)/C(=C(\\C)Nc2ccc(N)cc2)C(=O)OC1=O", "inhibition in vivo at 0.5 mg/kg (%)": 58}
{"input-smiles": "CC(=O)C1=C(O)/C(=C(\\C)Nc2ccc(NS(C)(=O)=O)cc2)C(=O)OC1=O", "inhibition in vivo at 0.5 mg/kg (%)": 20}
{"input-smiles": "CC(=O)C1=C(O)/C(=C(\\C)Nc2ccc(O)c(NS(C)(=O)=O)c2)C(=O)OC1=O", "inhibition in vivo at 0.5 mg/kg (%)": 38}
{"input-smiles": "CC(=O)C1=C(O)/C(=C(\\C)Nc2ccc(NC(N)=O)cc2)C(=O)OC1=O", "inhibition in vivo at 0.5 mg/kg (%)": 38}
{"input-smiles": "CC(=O)C1=C(O)/C(=C(\\C)Nc2ccc(NC(=O)C(C)C)cc2)C(=O)OC1=O", "inhibition in vivo at 0.5 mg/kg (%)": 64}
{"input-smiles": "CC(=O)C1=C(O)/C(=C(\\C)Nc2cccc(NC(N)=O)c2)C(=O)OC1=O", "inhibition in vivo at 0.5 mg/kg (%)": 45}
{"input-smiles": "CCCCC(=O)Oc1ccc(N/C(C)=C2\\C(=O)OC(=O)C(C(C)=O)=C2O)cc1", "inhibition in vivo at 0.5 mg/kg (%)": 34}
{"input-smiles": "CC(=O)NCc1cc(N/C(C)=C2\\C(=O)OC(=O)C(C(C)=O)=C2O)ccc1O", "inhibition in vivo at 0.5 mg/kg (%)": 1}
{"input-smiles": "CNc1cc(N/C(C)=C2\\C(=O)OC(=O)C(C(C)=O)=C2O)ccc1O", "inhibition in vivo at 0.5 mg/kg (%)": -6}
